B1: BTBD10 (parent)
chain: FVYENAKEGARNIRTSERVTLIVD

Variants of: B1
Assay: protein stability index of a GFP-peptide fusion (GPS, HEK-293T) (PSI 1-6); higher = more stable;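 further: lentivirally expressed fusions sorted by FACS into six bins by GFP to DsRed ratio, PSI derived from sequencing read proportions per bin multiplied by bin number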
Settings: c terminus: a fixed tail appended
# key: entry, value: protein stability index
measuredQuantity: protein stability index

{"columns": ["sequenceString", "measured"],
 "data": [
  ["FVYENAKEGARNIRTSERVTGIVD [L21G]", 2.56],
  ["FVYENAKECARNIRTSERVTLIVD [G9C]", 1.83],
  ["FVYENAKEGARNIRTSERVTHIVD [L21H]", 2.11],
  ["FVYWNAKEGARNIRTSERVTLIVD [E4W]", 1.83],
  ["FVYENAKEGARNHRTSERVTLIVD [I13H]", 2.4],
  ["FVYENAKEHARNIRTSERVTLIVD [G9H]", 1.72],
  ["FVYHNAKEGARNIRTSERVTLIVD [E4H]", 2.16],
  ["FVYLNAKEGARNIRTSERVTLIVD [E4L]", 1.48],
  ["FVYENAKEGARNFRTSERVTLIVD [I13F]", 2.43],
  ["FVYENAKEGARNIRTSERVTPIVD [L21P]", 2.03],
  ["FVYENAKEGARNIRTSERVTWIVD [L21W]", 2.56]
]}
